Protocol description: Toxicity on mice (LD50 i.g., largest dose i.v. at which all animals survive)
Type: in vivo
Test conditions: mouse, in vivo, po
Experimental endpoint: LD50

Take a look at these entries with their results.
| Compound | Reported |
| --- | --- |
| CC1=CC2(CC(C)(C)C1)NCC(c1cccc(O)c1)O2 (stereo not drawn) | ~1200 mg/kg |
| Oc1cccc(C2CNC3(CCCCCC3)O2)c1 (stereo not drawn) | ~400 mg/kg |

Next item in the queue.
Item Oc1cccc(C2CNC3(CCCCC3)O2)c1 (stereo not drawn) has what recorded LD50?
> 400 mg/kg

###

Overview of reported largest dose i.v. at which all animals survive across a group of compounds:
Protocol description: Toxicity on mice (LD50 i.g., largest dose i.v. at which all animals survive)
Assay type: in vivo
Respond with the figure and its unit, in that order.

| Compound | Reported |
| --- | --- |
| CC1=CC2(CC(C)(C)C1)NCC(c1cccc(O)c1)O2 (centres unmarked) [C] | 20.7 mg/kg |

Item NCC(O)c1cccc(O)c1 (centres unmarked) [D, 1-(3'-hyroxyphenyl)-2-aminoethanol, reference compound] has what recorded largest dose i.v. at which all animals survive?
3.3 mg/kg

Item Oc1cccc(C2CNC3(CCCCC3)O2)c1 (centres unmarked) [A] has what recorded largest dose i.v. at which all animals survive?
3.3 mg/kg

Item CCNCC(O)c1cccc(O)c1 (centres unmarked) [E, 1-(3'-hydroxyphenyl)-2-ethylaminoethanol, reference compound] has what recorded largest dose i.v. at which all animals survive?
7.25 mg/kg

Item Oc1cccc(C2CNC3(CCCCCC3)O2)c1 (centres unmarked) [B] has what recorded largest dose i.v. at which all animals survive?
3.3 mg/kg
